Molecular target: Rat M4 (Rattus norvegicus)
Construct: expressed in transfected cells; host or cells: CHO-K1 (ATCC), stably co-expressing chimeric G protein Gqi5
Experiment: mAChR M4 cell-based functional assay (calcium flux, antagonist mode vs EC80 acetylcholine), rat M4/Gqi5/CHO-K1 cells
Conditions: CHO-K1; % ACh maximum at 30 μM; rat M4; read-out: Rat M4 Emin (%)
Experimental: Human or rat M4 cDNA, along with the chimeric G protein Gqi5, were transfected into Chinese hamster ovary (CHO-K1) cells purchased from the American Type Culture Collection using Lipofectamine2000. […] Calcium flux was measured using the Functional Drug Screening System (FDSS) 6000 or 7000 (Hamamatsu Corporation, Tokyo, Japan) as an increase in the fluorescent static ratio. […] Agonist activity was analyzed as a concentration-dependent increase in calcium mobilization upon compound addition. […]
quantityName: remaining activity at 30 µM (%)

Please review the following examples before continuing.
| molecule | quantityName | unitSpec | value |
| --- | --- | --- | --- |
| O=C(Nc1cc(F)ccc1Cl)c1ccc(N[C@H]2C[C@@H]3CN(CC4CCOCC4)C[C@@H]3C2)nn1 [compound 11] | remaining activity at 30 µM | % | 29 |
| O=S(=O)(c1ccccc1)c1ccc(N[C@H]2C[C@@H]3CN(Cc4ccc5c(c4)OC(F)(F)O5)C[C@@H]3C2)nn1 [compound 26] | remaining activity at 30 µM | % | 14 |
| CC1(C)CC(N2C[C@H]3C[C@H](Nc4ccc(-c5ccc(F)cc5)nn4)C[C@H]3C2)CCO1 (stereo partly shown) [compound 54] | remaining activity at 30 µM | % | 5 |
| O=C(Nc1ccccc1F)c1ccc(N[C@H]2C[C@@H]3CN(CC4CCOCC4)C[C@@H]3C2)nn1 [compound 8] | remaining activity at 30 µM | % | 25 |

(P) Cc1cccnc1CN1C[C@H]2C[C@H](Nc3ccc(S(=O)(=O)C4CCCCC4)nn3)C[C@H]2C1 [compound 43]
(Q) CC1(C)CC(N2C[C@H]3C[C@H](Nc4ncc(-c5ccccc5)s4)C[C@H]3C2)CCO1 (stereo partly shown) [compound 19]
QUERY: Which of the two gives a bigger number for remaining activity at 30 µM: P or Q ? # reply format: chosen label
RESULT: Q

----------
target: Human M4 (Homo sapiens, UniProt P08173); construct: expressed in transfected cells; host or cells: CHO-K1 (ATCC), stably co-expressing chimeric G protein Gqi5; assay: mAChR M4 cell-based functional assay (calcium flux, antagonist mode vs EC80 acetylcholine), human M4/Gqi5/CHO-K1 cells; conditions: CHO-K1; % ACh maximum at 30 μM; human M4; read-out: Human M4 Emin (%)
quantityName: remaining activity at 30 µM (%)

The examples below pair each entry with its known result.
| molecule | quantityName | value |
| --- | --- | --- |
| CC(C)(O)CN1C[C@H]2C[C@H](Nc3ccc(-c4cc(F)ccc4Cl)nn3)C[C@H]2C1 | remaining activity at 30 µM | 3 |
| O=S(=O)(c1ccccc1)c1nnc(N[C@H]2C[C@@H]3CN(CC4CCOCC4)C[C@@H]3C2)cc1NC1CC1 | remaining activity at 30 µM | 4 |
| CC(=O)Nc1ccc(-c2ccc(N[C@H]3C[C@@H]4CN(C5CCOC(C)(C)C5)C[C@@H]4C3)nn2)cc1 (stereo partly shown) | remaining activity at 30 µM | 3 |
| CC1(C)C(=O)N(C2CC2)c2nnc(N[C@H]3C[C@@H]4CN(CC5CCOCC5)C[C@@H]4C3)cc21 | remaining activity at 30 µM | 4 |

(A) C=CCN1C(=O)C(C)(C)c2cc(N[C@H]3C[C@@H]4CN(CCC(C)(C)C)C[C@@H]4C3)nnc21
(B) O=S(=O)(c1ccccc1)c1ccc(N[C@H]2C[C@@H]3CN(Cc4ccc5c(c4)OCO5)C[C@@H]3C2)nn1
(C) CC1(C)CC(N2C[C@H]3C[C@H](Nc4ccc(N5CCOCC5)nn4)C[C@H]3C2)CCO1 (stereo partly shown)
QUERY: Sort low-to-high on remaining activity at 30 µM, please. Field: ranking. Enter the labels in the order requested.
RESULT: B, A, C
(B: 2%, A: 3%, C: 5%)

----------
Molecular target: Rat M4 (Rattus norvegicus)
Sequence (P08485 1-478): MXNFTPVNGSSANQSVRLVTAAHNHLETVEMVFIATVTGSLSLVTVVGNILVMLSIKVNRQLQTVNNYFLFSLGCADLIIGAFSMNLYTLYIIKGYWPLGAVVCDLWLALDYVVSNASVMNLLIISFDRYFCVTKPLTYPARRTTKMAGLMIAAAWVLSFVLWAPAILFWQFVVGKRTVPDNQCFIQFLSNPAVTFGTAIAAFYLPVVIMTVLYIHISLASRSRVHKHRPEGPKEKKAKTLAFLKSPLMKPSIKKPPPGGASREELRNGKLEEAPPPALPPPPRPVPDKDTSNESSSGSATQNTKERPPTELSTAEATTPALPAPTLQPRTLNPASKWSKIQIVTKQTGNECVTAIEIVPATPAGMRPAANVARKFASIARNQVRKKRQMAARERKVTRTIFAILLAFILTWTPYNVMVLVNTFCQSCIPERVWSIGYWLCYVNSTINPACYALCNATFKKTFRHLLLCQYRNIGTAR
Experiment: mAChR M4 cell-based functional assay (calcium flux, antagonist mode vs EC80 acetylcholine), rat M4/Gqi5/CHO-K1 cells
Conditions: decrease of response elicited by EC80 acetylcholine; rat M4/Gqi5 CHO-K1 cells
quantityName: IC50 (nM)

Some solved entries appear below for comparison.
| smilesNotation | quantityName | unitSpec | value |
| --- | --- | --- | --- |
| O=C(Nc1ccc(F)cc1)c1ccc(N[C@H]2C[C@@H]3CN(CC4CCOCC4)C[C@@H]3C2)nn1 | IC50 | nM | 4190 |
| Cc1cc(Br)cnc1CN1C[C@H]2C[C@H](Nc3ccc(S(=O)(=O)C4CCCCC4)nn3)C[C@H]2C1 | IC50 | nM | 292 |
| Fc1ccc(Cl)c(-c2ccc(N[C@H]3C[C@@H]4CN(C5CCOCC5)C[C@@H]4C3)nn2)c1 | IC50 | nM | 1270 |

(P) CC(C)(C)CCN1C[C@H]2C[C@H](Nc3ccc(S(=O)(=O)C4CCCCC4)nn3)C[C@H]2C1
(Q) Fc1ccc(Cl)c(-c2ccc(N[C@H]3C[C@@H]4CN(C5CCCCC5)C[C@@H]4C3)nn2)c1
QUERY: Param metric = IC50; output whichever of P , Q has the minimum value. Kindly give the label for the entry you pick.
RESULT: P

(P) O=S(=O)(c1ccccc1)c1ccc(N[C@H]2C[C@@H]3CN(Cc4ccc5c(c4)OC(F)(F)O5)C[C@@H]3C2)nn1
(Q) Fc1ccc(Cl)c(-c2ccc(N[C@H]3C[C@@H]4CN(C5CCSCC5)C[C@@H]4C3)nn2)c1
QUERY: Between these two entries, P and Q , state which has the higher IC50. Lab note: record the label of whichever item you select.
RESULT: P

----------
Molecular target: Human M4 (Homo sapiens, UniProt P08173)
Sequence (P08173 1-479): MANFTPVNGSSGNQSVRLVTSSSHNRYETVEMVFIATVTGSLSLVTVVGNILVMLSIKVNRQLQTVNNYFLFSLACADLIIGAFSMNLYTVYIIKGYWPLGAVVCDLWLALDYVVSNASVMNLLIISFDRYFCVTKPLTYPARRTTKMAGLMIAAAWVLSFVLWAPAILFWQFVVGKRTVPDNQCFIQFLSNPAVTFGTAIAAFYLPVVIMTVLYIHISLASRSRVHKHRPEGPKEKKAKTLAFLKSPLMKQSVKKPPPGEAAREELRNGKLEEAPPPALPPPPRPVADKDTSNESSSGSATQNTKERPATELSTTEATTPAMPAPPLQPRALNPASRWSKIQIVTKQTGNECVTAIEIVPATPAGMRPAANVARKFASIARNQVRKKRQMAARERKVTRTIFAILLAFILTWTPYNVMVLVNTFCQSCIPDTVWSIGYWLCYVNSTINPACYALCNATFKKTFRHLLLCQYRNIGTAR
Assay: mAChR M4 cell-based functional assay (calcium flux, antagonist mode vs EC80 acetylcholine), human M4/Gqi5/CHO-K1 cells
Settings: decrease of response elicited by EC80 acetylcholine; human M4/Gqi5 CHO-K1 cells
Procedure: Human or rat M4 cDNA, along with the chimeric G protein Gqi5, were transfected into Chinese hamster ovary (CHO-K1) cells purchased from the American Type Culture Collection using Lipofectamine2000. […] Calcium flux was measured using the Functional Drug Screening System (FDSS) 6000 or 7000 (Hamamatsu Corporation, Tokyo, Japan) as an increase in the fluorescent static ratio. […] Agonist activity was analyzed as a concentration-dependent increase in calcium mobilization upon compound addition. […]
quantityName: IC50 (nM)

Solved cases (4 shown):
| molecule | targetEntity | IC50 / nM |
| --- | --- | --- |
| Fc1ccc(Cl)c(-c2ccc(N[C@H]3C[C@@H]4CN(C5Cc6ccccc6C5)C[C@@H]4C3)nn2)c1 | Human M4 (Homo sapiens, UniProt P08173) | 189 |
| CC1(C)CC(N2C[C@H]3C[C@H](Nc4ccc(-c5ccccc5F)nn4)C[C@H]3C2)CCO1 (stereo partly shown) | Human M4 (Homo sapiens, UniProt P08173) | 12.1 |
| O=S(=O)(c1ccccc1)c1nnc(N[C@H]2C[C@@H]3CN(CC4CCOCC4)C[C@@H]3C2)cc1NC1CC1 | Human M4 (Homo sapiens, UniProt P08173) | 70.7 |
| CC(=O)Nc1ccc(-c2ccc(N[C@H]3C[C@@H]4CN(C5CCOC(C)(C)C5)C[C@@H]4C3)nn2)cc1 (stereo partly shown) | Human M4 (Homo sapiens, UniProt P08173) | 18.7 |

(a) O=S(=O)(c1ccc(N[C@H]2C[C@@H]3CN(CC4(O)CCOCC4)C[C@@H]3C2)nn1)C1CCCCC1
(b) C=CCN1C(=O)C(C)(C)c2cc(N[C@H]3C[C@@H]4CN(CCC(C)(C)C)C[C@@H]4C3)nnc21
QUERY: Looking only at measured IC50, which entry is lower, a or b ? API: response body contains the label of the selected item.
RESULT: b
